Source listed as PubChem BioAssay (EPA / NIEHS).

biological target: Nuclear receptor subfamily 1 group I member 2 (Homo sapiens) (UniProt O75469); experiment: ATG_PXR_TRANS: Attagene TRANS-FACTORIAL HepG2 Assay for human Pregnane X Receptor (PXR) (AID 2283008)
Sequence (O75469 whole entry, looked up): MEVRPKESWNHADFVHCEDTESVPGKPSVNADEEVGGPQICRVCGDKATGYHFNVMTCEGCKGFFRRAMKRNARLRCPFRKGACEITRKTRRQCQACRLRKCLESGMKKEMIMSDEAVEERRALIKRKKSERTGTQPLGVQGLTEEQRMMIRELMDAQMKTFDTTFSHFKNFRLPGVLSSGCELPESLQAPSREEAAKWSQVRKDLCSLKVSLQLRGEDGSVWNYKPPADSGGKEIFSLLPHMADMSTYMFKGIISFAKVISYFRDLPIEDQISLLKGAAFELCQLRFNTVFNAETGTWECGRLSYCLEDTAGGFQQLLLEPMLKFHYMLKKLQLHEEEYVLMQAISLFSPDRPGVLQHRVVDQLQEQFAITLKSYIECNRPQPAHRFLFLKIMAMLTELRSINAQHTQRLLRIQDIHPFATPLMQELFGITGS
Results filed as inconclusive are left out. Active and inactive are the calls of the source. The calls were made as follows: active = hit-call score of the fitted dose curve at least 0.9, where 1 is the maximum; inconclusive = response in the unintended direction; inactive = score below 0.9.
Outcome codes: active, inactive

{"columns": ["compound", "test_target", "assigned_label"],
 "data": [
  ["CCC(C)(CCCC(C)C)OC(C)=O (stereo not drawn)", "Nuclear receptor subfamily 1 group I member 2 (Homo sapiens) (UniProt O75469)", "inactive"],
  ["CC(=O)OC(C)(C)C1CC=C(C)CC1 (stereo not drawn)", "Nuclear receptor subfamily 1 group I member 2 (Homo sapiens) (UniProt O75469)", "active"],
  ["CCCCCCCCCC(=O)OCC", "Nuclear receptor subfamily 1 group I member 2 (Homo sapiens) (UniProt O75469)", "inactive"],
  ["CCCCOCCOC(=O)c1ccccc1C(=O)OCCOCCCC", "Nuclear receptor subfamily 1 group I member 2 (Homo sapiens) (UniProt O75469)", "active"],
  ["c1ccc(Cc2ccccc2)cc1", "Nuclear receptor subfamily 1 group I member 2 (Homo sapiens) (UniProt O75469)", "inactive"],
  ["O=C(O)CS", "Nuclear receptor subfamily 1 group I member 2 (Homo sapiens) (UniProt O75469)", "inactive"],
  ["OCCN1CCOCC1", "Nuclear receptor subfamily 1 group I member 2 (Homo sapiens) (UniProt O75469)", "inactive"],
  ["c1ccc(OCCOc2ccccc2)cc1", "Nuclear receptor subfamily 1 group I member 2 (Homo sapiens) (UniProt O75469)", "inactive"]
]}

* * *

read-out: Monokine induced gamma interferon (MIG), CXCL9 (gene 4283); experiment: BSK_hDFCGF_MIG: BioMAP Diversity Plus: hDFCGF Assay for Monokine induced gamma interferon (MIG) Biomarker Activity (AID 2283063); conditions: primary human foreskin fibroblasts; actives raise or lower the signal
Activity calls are given as the source filed them. How the source made its calls: active means hit-call score of the fitted dose curve at least 0.9, where 1 is the maximum; inactive means score below 0.9.
Possible outcomes: yes for active, no for inactive

{"columns": ["structure_smiles", "assigned_label"],
 "data": [
  ["O=S1(=O)CC(Cl)(Cl)C(Cl)(Cl)C1", "yes"],
  ["CC(=O)CCC=C(C)CCC=C(C)C", "no"],
  ["CC=CC(=O)C1=C(C)C=CCC1(C)C", "no"],
  ["CC(=O)c1ccc(C)cc1", "no"],
  ["C=C(C)C(=O)OCCC(F)(F)C(F)(F)C(F)(F)C(F)(F)C(F)(F)C(F)(F)C(F)(F)C(F)(F)F", "no"],
  ["CC1(C)[C@H](C=C(Cl)Cl)[C@H]1C(=O)OCc1cccc(Oc2ccccc2)c1", "no"],
  ["CCC(=O)OCC=Cc1ccccc1", "no"],
  ["CCCCCCCCCCCCS", "yes"],
  ["O=C1OC2(c3ccc(O)cc3Oc3cc(O)ccc32)c2ccccc21", "no"],
  ["c1ccc(Sc2ccccc2)cc1", "no"],
  ["CC(C)CCCC(C)(C)O", "no"],
  ["O=S(=O)(O)C(F)(F)C(F)(F)OC(F)(F)C(F)(F)F", "no"],
  ["OCCN1CCOCC1", "no"]
]}

* * *

assay: BSK_4H_Eotaxin3: BioMAP Diversity Plus: 4H Assay for Eotaxin 3 Biomarker Activity (AID 2283000); conditions: primary human endothelial cells (HUVEC); actives raise or lower the signal
Active and inactive are the calls of the source. The calls were made as follows: active = hit-call score of the fitted dose curve at least 0.9, where 1 is the maximum; inactive = score below 0.9.
Outcomes: 1 (yes) for active, 0 (no) for inactive

{"columns": ["molecule", "assigned_label"],
 "data": [
  ["O=C1OC2(c3ccc(O)cc3Oc3cc(O)ccc32)c2ccccc21", "0 (no)"],
  ["CC(=O)c1ccc(C)cc1", "0 (no)"],
  ["CCCCN(CCO)CCO", "0 (no)"],
  ["C=C(F)C(=O)OC(C(F)(F)F)C(F)(F)F", "0 (no)"],
  ["COc1ccccc1NC(=O)CC(C)=O", "0 (no)"],
  ["O=C(O)C(F)(F)OC(F)(F)C(F)(F)OC(F)(F)C(F)(F)C(F)(F)C(F)(F)F", "0 (no)"],
  ["CCCCCCCCCC(=O)OCC", "1 (yes)"],
  ["C=C1CC/C=C(\\C)CC[C@@H]2[C@@H]1CC2(C)C", "1 (yes)"],
  ["CCCCCCCCCCCCS", "1 (yes)"],
  ["O=C(c1ccc(OCCN2CCCCC2)cc1)c1c(-c2ccc(O)cc2)sc2cc(O)ccc12", "1 (yes)"],
  ["CCOC(=O)C=Cc1ccccc1", "0 (no)"],
  ["OCC(F)(OC(F)(F)C(F)(OC(F)(F)C(F)(F)C(F)(F)F)C(F)(F)F)C(F)(F)F (stereo not drawn)", "0 (no)"],
  ["C[C@]12CC[C@@H]3c4ccc(O)cc4CC[C@H]3[C@@H]1CC[C@@H]2O", "1 (yes)"]
]}
